The reported numbers originate from patent US6989384B2.

test: Cytotoxicity in mock-infected H1-HeLa cells (XTT); format: cell-based; conditions: human, two days, read-out: Toxicity CC50
CC50 at 2 days reference

CCOC(=O)/C=C/[C@H](C[C@@H]1CCNC1=O)NC(=O)c1cc2cc(C)ccc2[nH]1    > 100 µM
CCOC(=O)/C=C/[C@H](CCC(N)=O)NC(=O)c1cc2ccccc2[nH]1    > 100 µM
CCOC(=O)/C=C/[C@H](C[C@@H]1CCNC1=O)NC(=O)N[C@@H](CC(C)C)C(=O)OCC    > 10 µM

# ---- query compound ----
Look up CC50 at 2 days for this compound: "CCOC(=O)/C=C/[C@H](C[C@@H]1CCNC1=O)NC(=O)COc1ccc(Cl)c(Cl)c1"
> 10 µM
